Attribution: paper PMC4297623

ASSAY SYSTEM: UniProt:P32249
Sequence (P32249 whole entry): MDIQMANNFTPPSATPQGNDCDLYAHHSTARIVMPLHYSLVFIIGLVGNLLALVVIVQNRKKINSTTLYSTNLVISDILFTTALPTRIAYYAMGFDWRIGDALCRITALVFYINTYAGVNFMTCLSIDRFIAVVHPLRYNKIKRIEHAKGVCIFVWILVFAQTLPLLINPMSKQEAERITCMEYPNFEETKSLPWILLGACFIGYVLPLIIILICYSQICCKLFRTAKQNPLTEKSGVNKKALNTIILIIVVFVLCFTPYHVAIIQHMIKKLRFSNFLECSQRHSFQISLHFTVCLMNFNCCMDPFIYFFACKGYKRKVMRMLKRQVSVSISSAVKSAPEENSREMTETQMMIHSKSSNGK
EXPERIMENT: GTPγ35S binding functional assay
Assay type: biochemical
pEC50: −log10 of the molar value.
ENDPOINT NAME: pEC50

[in] Returns the measured pEC50 for the input compound. Input: CC(C)CCC[C@@H](C)[C@H]1CC[C@H]2[C@@H]3CC=C4C[C@@H](O)CC[C@]4(C)[C@H]3CC[C@]12C
[out] < 5.00
